Values compiled from PubChem BioAssay (NCI).

Each entry below carries its recorded TGI.
test system: HOP-92 NSCLC; assay: NCI tumour cell line growth inhibition, 48 h

Solved entries (count: 3):
Reported TGI for HOP-92 NSCLC, given COC(=O)[C@@H](COC(=O)/C=C/c1ccc(OC(C)=O)c(OC(C)=O)c1)NC(=O)/C=C/c1ccc(OC(C)=O)c(OC(C)=O)c1 ? > 100 µM

Provide the documented TGI with HOP-92 NSCLC as the system for C=C1CCC2C3(C)COC(c4cccc(Cl)c4)OC3CCC2(C)C1/C=C/C1=CCOC1=O (stereo not given) > 100 µM

So what TGI did Cn1c(=O)c2c(nc3n2C(CCl)CO3)n(C)c1=O (stereo not given) get with HOP-92 NSCLC? > 100 µM

Others:
Please provide the recorded TGI for COc1ccc(Nc2nc3c(N)cc(C(F)(F)F)cc3nc2-c2ccccc2)cc1 , tested on HOP-92 NSCLC. > 100 µM

Item O=C1/C(=C\c2ccccc2)CN(C(=O)c2ccccc2F)C/C1=C\c1ccccc1 with HOP-92 NSCLC - TGI? 14.2 µM

Give the reported TGI for COc1ccc(Br)c(CCCCC(=O)O)c1 (system: HOP-92 NSCLC). 76.3 µM

Provide value of TGI for this record tested with HOP-92 NSCLC: Nc1nc(Cl)c(N)c(NCC2(CO)CC(O)C2)n1 (stereo not given) > 100 µM

Requested read-out TGI, target or system HOP-92 NSCLC, entry CC(=O)NNc1nc(C)c(C(/C=C/c2ccc3c(c2)OCO3)=N/NC(=O)c2ccncc2)s1 > 100 µM

// lookup TGI | system=HOP-92 NSCLC | key= Cc1ccc(C)c(NC(=O)CCC(=O)CC(=O)C(C)(C)C)c1 > 100 µM

GET /values?readout=TGI&system=HOP-92 NSCLC&item= CC1(C)OCC(C2OC(On3nnc4ccc(Cl)cc43)C3OC(C)(C)OC23)O1 (stereo not given) > 100 µM

* * *

The entries below come with measured GI50 values attached.
tested on: HCT-15 colon; test: NCI tumour cell line growth inhibition, 48 h

Give HCT-15 colon GI50 for CCCCCCCCCCCCCCCc1ccc(C(=O)C[n+]2ccccc2)cc1 1.03 µM

Query for HCT-15 colon: what GI50 does the record show for O=C1c2cccnc2-c2nc(-c3ccccc3)cc3c2c1nc1ccccc13 ? 1.13 µM

HCT-15 colon / GI50 / COc1cc2c(cc1OCCCN1CCN(CCCOc3cc4c(cc3OC)C(=O)C3CCC[C@H]3C=N4)CC1)N=C[C@@H]1CCCC1C2=O (stereo partly drawn) : value? 53.9 µM

Provide the documented GI50 with HCT-15 colon as the system for Oc1ccc(-c2nc(-c3ccc(F)cc3)c(-c3ccncc3)[nH]2)cc1 13.2 µM

I'm curious: which GI50 was measured for O=C(Nc1ccc(-n2cc(-c3ccncc3)c(-c3ccc(O)c(Cl)c3)n2)cc1)c1ccc(Cl)c(Cl)c1 tested on HCT-15 colon? 0.708 µM

* * *

// reported TGI per item
system: OVCAR-4 ovarian; experiment: NCI tumour cell line growth inhibition, 48 h

Consider the worked cases shown below.
# query: TGI of entry CC(=O)Nc1ccccc1S(=O)(=O)c1c(-c2c(C)c(Cl)c(C)c(Cl)c2C)noc1C 35.6 µM

Return reported TGI; argument: CCN(CC)c1ccc(/C=C/C2=[N+](C)c3ccccc3C2(C)C)cc1 29.7 µM

Which TGI reading was recorded for the compound COc1cc2nc(-c3ccc(Cl)cc3)cc(OCCCN3CCC(O)CC3)c2cc1OC ? > 100 µM

Fill in: TGI of O=C(CC(C(=O)c1ccsc1)c1cccs1)c1ccsc1 (centres undefined) is ___ > 100 µM

New cases:
Look up TGI for this compound: N#Cc1c(-c2ccccc2)cc(Nc2ccc(F)cc2)n2c1nc1ccccc12 > 100 µM

Sample Nc1cccc2cc(S(=O)(=O)Nc3ccc(C(=O)O)cc3)ccc12 — what was its TGI? > 100 µM

I'd like to know its TGI. The compound in question is N/C(=N/O)c1cn(C2OC(CO)C(O)C2O)c2ncnc(NO)c12 (centres undefined) 5.98 µM

Using the record for CCCCCNC(=O)C1C(=O)N(CCCCC)C(=O)/C1=N\N (centres undefined) , report its TGI. > 100 µM

What value of measured TGI is listed for COC(=O)C1(c2ccc(OC)cc2)NC(c2ccccc2)C2C(=O)N(c3ccc(OC)cc3)C(=O)C21 (centres undefined) ? > 100 µM

Entry O=C1NC(c2ccccc2)C1N(Cc1ccccc1)Cc1ccccc1 (centres undefined) has what TGI? > 100 µM

Reported TGI, compound Cc1cc(C)c2c(c1C)CN1CN2Cc2c(C)c(C)cc(C)c21 : ____ > 100 µM

Returns the measured TGI for the input compound. Input: CC1(C)CC[C@]2(C(=O)O)CCC3(C)C(=CCC4[C@@]5(C)CC[C@H](OC6OCC(O)C(O)C6OC6OC(CO)C(O)C(O)C6O)C(C)(C)C5CC[C@]43C)C2C1 (some centres undefined) 3.05 µM

What value of measured TGI is listed for CCOC(=O)C1=C(O)CSC1=Nc1ccc(N=C2SCC(O)=C2C(=O)OCC)cc1 ? 94.8 µM

Returns the measured TGI for the input compound. Input: COc1cc(-c2cn(-c3ccc(Cl)cc3)c(=O)n2-c2ccccc2)cc(OC)c1OC > 90.7 µM
